Target: T1, Cynomolgus CD3εδ Fc heterodimer (Cy CD3ε Fc / CD3δ Fc-HIS) (cynomolgus, UniProt Q95LI8 22-100)
T1 chain 1: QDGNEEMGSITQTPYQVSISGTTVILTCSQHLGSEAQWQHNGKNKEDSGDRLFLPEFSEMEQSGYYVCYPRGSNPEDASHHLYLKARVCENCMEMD
T1 chain 2: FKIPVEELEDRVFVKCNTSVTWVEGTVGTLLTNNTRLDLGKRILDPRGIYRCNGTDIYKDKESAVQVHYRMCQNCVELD
Assay: BLI (Octet), IgG on AHC sensor, pH 6.0
assayMetric: koff (s⁻¹)
Lab book: enter the figure in s⁻¹, no units written.

{"columns": ["binder", "reading"],
 "data": [
  ["SAD10319_P01_D01 (ADI-48622) (antibody, V domains shown, IgG; also called Ab231) VH: QVQLVQSGAEVKKPGASVKVSCKASGYTFKSYDMHWVRQAPGQRLEWMGWIDAGTGNTKYSQKFQGRVTITRDTSASTAYMELSSLRSEDTAVYYCARDAYGRYFYDVWGQGTLVTVSS VL: DIVMTQSPDSLAVSLGERATINCKSSQSLLNARTGKNYLAWYQQKPGQPPKLLIYWASTRESGVPDRFSGSGSGTDFTLTISSLQAEDVAVYYCKQSYSRRTFGGGTKVEIK", 0.00946],
  ["SAD10319_P06_F07 (ADI-57429) (antibody, V domains shown, IgG; also called Ab159) VH: QVQLVQSGAEVKKPGASVKVSCKASGYTFESYDMHWVRQAPGQPLEWMGWIDAGTGATTYSQKFQGRVTITRDTSASTAYMELSSLRSEDTAVYYCARDAYHHYFYDVWGQGTLVTVSS VL: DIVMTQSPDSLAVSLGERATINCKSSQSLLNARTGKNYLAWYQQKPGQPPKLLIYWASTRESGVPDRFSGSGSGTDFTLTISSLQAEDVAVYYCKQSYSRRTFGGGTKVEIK", 0.0251]
]}

Here is the next item to consider.
Record SAD10319_P02_C06 (ADI-57322) (antibody, V domains shown, IgG; also called Ab10) VH: QVQLVQSGAEVKKPGASVKVSCKASGYTFTSYAMHWVRQAPGQRLEWMGWINPVTGATVYSQKFQGRVTITRDTSASTAYMELSSLRSEDTAVYYCARDAYGHYFYDVWGQGTLVTVSS VL: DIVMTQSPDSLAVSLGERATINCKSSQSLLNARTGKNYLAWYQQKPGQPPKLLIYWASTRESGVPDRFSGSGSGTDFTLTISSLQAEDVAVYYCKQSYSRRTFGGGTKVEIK . Reported koff: 0.023

Data origin, for the record: patent US20220380463A1
